Data origin: ChEMBL document CHEMBL3407434

system: Trypanosoma brucei gambiense; assay: Antitrypanosomal activity against Trypanosoma brucei gambiense Feo assessed as parasite growth inhibition at 10 uM after 72 hrs by fluorescence assay relative to control; assay type: functional; conditions: read-out: GI
Catalogue of compounds with associated inhibition of growth at 10 µM
A number alone suffices; assume %.

Reference set (3 entries):
Compound	Observation type	Obs value
O=c1c(O)c(-c2ccc(O)cc2)oc2cc(O)cc(O)c12 [KAEMPFEROL]	inhibition of growth at 10 µM	55.1
COc1cc(O)c2c(=O)c(OC)c(-c3ccc(O)cc3)oc2c1 [KUMATAKENIN]	inhibition of growth at 10 µM	25.2
CC(=O)Oc1ccc(-c2oc3cc(OC(C)=O)cc(O)c3c(=O)c2OC(C)=O)cc1	inhibition of growth at 10 µM	0

Returns the measured inhibition of growth at 10 µM for the input compound. Input: `COc1ccc(-c2oc3cc(O)c(OC)c(O)c3c(=O)c2OC)cc1OC`
76.2

Returns the measured inhibition of growth at 10 µM for the input compound. Input: `COc1ccc(-c2oc3cc(OC)cc(O)c3c(=O)c2OC)cc1`
4.6

Returns the measured inhibition of growth at 10 µM for the input compound. Input: `COc1cc(-c2oc3cc(OC)c(OC)c(O)c3c(=O)c2OC)cc(OC)c1OC`
17.6

----------
tested on: B16; assay: Cytotoxicity against mouse B16 cells assessed as cell viability after 48 hrs by MTT assay; type: cell-based; details: B16, 48 h
Observation type: pIC50
Please note pIC50 is a logarithmic value: minus log10 of concentration in mol/L. Answer with that number alone.

Reference set (5 entries):
Compound	Experimental system	pIC50
COc1cc(-c2oc3cc(O)c(OC)c(O)c3c(=O)c2OC)cc(OC)c1OC	B16	4.04
CC(=O)Oc1ccc(-c2oc3cc(OC(C)=O)cc(O)c3c(=O)c2OC(C)=O)cc1	B16	4.40
COc1cc(-c2oc3cc(OC)c(OC)c(O)c3c(=O)c2OC)cc(OC)c1OC	B16	4.94
COc1c(O)cc2oc(-c3ccc(O)cc3)c(OC)c(=O)c2c1O	B16	4.13
O=c1c(O)c(-c2ccc(O)cc2)oc2cc(O)cc(O)c12	B16	4.27

Returns the measured pIC50 for the input compound. Input: COc1ccc(-c2oc3cc(O)c(OC)c(O)c3c(=O)c2OC)cc1 [SANTIN]
4.34

Returns the measured pIC50 for the input compound. Input: `COc1cc(-c2oc3cc(O)c(OC)c(O)c3c(=O)c2OC)cc(O)c1OC`
4.47

Returns the measured pIC50 for the input compound. Input: `COc1cc(O)c2c(=O)c(OC)c(-c3ccc(O)cc3)oc2c1`
4.24

Returns the measured pIC50 for the input compound. Input: `COc1ccc(-c2oc3cc(O)c(OC)c(O)c3c(=O)c2OC)cc1OC`
4.54

Returns the measured pIC50 for the input compound. Input: COc1c(-c2ccc(O)cc2)oc2cc(O)cc(O)c2c1=O [ISOKAEMPFERIDE]
4.12

----------
target: Tubulin; assay: Inhibition of tubulin (unknown origin) polymerization preincubated for 45 mins followed by GTP addition measured after 2 hrs by fluorescence assay
Observation type: IC50
Show the value, then the unit it is measured in.

Reference set (3 entries):
Compound	Obs value
COc1cc(-c2oc3cc(O)c(OC)c(O)c3c(=O)c2OC)cc(OC)c1OC	21.4 µM
COc1ccc(-c2oc3cc(O)c(OC)c(O)c3c(=O)c2OC)cc1 [SANTIN]	5.7 µM
COc1cc(-c2oc3cc(O)c(OC)c(O)c3c(=O)c2OC)cc(O)c1OC	17.8 µM

Continue with the compound presented below.
Returns the measured IC50 for the input compound. Input: `COc1ccc(-c2oc3cc(O)c(OC)c(O)c3c(=O)c2OC)cc1OC`
19.3 µM
